- PROCEDURE SUMMARY: self-splicing fitness, log relative to wild type (ln ratio); higher = more splicing; Tetrahymena group I intron in knt gene, E. coli kanamycin selection, DiMSum; sequences stand for … in CUCUCU…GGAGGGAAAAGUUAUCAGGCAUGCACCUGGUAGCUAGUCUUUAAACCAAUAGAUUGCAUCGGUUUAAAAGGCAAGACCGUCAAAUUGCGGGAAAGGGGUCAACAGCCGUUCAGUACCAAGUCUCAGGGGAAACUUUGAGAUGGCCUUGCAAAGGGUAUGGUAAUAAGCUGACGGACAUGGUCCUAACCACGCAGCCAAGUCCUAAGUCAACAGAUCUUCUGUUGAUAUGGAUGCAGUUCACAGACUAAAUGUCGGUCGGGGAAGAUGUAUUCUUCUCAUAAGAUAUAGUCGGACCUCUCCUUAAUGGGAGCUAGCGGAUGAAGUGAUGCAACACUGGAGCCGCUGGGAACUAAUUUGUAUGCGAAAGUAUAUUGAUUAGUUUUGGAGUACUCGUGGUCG;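 also: selection with 25 µg/mL kanamycin versus none on LB agar overnight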
- EXPERIMENTAL CONDITIONS: 30 °C
READOUT NAME: self-splicing fitness (ln)
Enter a number only.

>  <SEQUENCE>
AUGUAGCAAUAUUACGUCAG

>  <NUMERIC RESULT>
-3.5

$$$$
>  <SEQUENCE>
UGGUAGCAAUAUUACGAAGG

>  <NUMERIC RESULT>
-2.95

$$$$
>  <SEQUENCE>
CCCUAGCAAUAUUACGACUA

>  <NUMERIC RESULT>
-2.51

$$$$
>  <SEQUENCE>
UUGAAGCAAUAUUACGAUUC

>  <NUMERIC RESULT>
-2.33

$$$$
>  <SEQUENCE>
UCUGAGCAAUAUUACGAGAG

>  <NUMERIC RESULT>
-4.12

$$$$
>  <SEQUENCE>
UGCCAGCAAUAUUACGUACG

>  <NUMERIC RESULT>
-0.444

$$$$
>  <SEQUENCE>
CGAUAGCAAUAUUACGCCCG

>  <NUMERIC RESULT>
-1.39

$$$$
>  <SEQUENCE>
AACCAGCAAUAUUACGAACC

>  <NUMERIC RESULT>
-0.246

$$$$

Quick check: self-splicing fitness (ln) of GGAGAGCAAUAUUACGUUUA ?
-3.83

Quick check: self-splicing fitness (ln) of CGUGAGCAAUAUUACGGAUU ?
-4.38

Quick check: self-splicing fitness (ln) of CCGCAGCAAUAUUACGCGUG ?
-2.75

Quick check: self-splicing fitness (ln) of GGGCAGCAAUAUUACGGACC ?
-0.717

Quick check: self-splicing fitness (ln) of AGAAAGCAAUAUUACGUGCU ?
-0.713

Quick check: self-splicing fitness (ln) of UUCAAGCAAUAUUACGCAAU ?
-2.21

Quick check: self-splicing fitness (ln) of GCUGAGCAAUAUUACGUCGC ?
-2.96

Quick check: self-splicing fitness (ln) of AUGCAGCAAUAUUACGAAUG ?
-2.15

====

- PROCEDURE SUMMARY: self-splicing fitness, log relative to wild type (ln ratio); higher = more splicing; Tetrahymena group I intron in knt gene, E. coli kanamycin selection, DiMSum; sequences stand for … in CUCUCU…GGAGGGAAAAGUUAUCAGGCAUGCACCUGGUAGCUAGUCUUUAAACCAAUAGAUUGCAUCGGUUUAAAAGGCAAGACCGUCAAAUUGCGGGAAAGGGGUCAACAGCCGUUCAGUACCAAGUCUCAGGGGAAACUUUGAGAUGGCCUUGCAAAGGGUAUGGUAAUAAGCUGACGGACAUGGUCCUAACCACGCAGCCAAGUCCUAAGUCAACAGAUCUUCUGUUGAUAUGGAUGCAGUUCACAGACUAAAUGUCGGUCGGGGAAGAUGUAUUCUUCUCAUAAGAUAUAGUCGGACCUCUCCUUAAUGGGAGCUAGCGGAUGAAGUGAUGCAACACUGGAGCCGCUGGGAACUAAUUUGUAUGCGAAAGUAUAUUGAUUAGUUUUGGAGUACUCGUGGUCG
- EXPERIMENTAL CONDITIONS: 30 °C
READOUT NAME: self-splicing fitness (ln)
Enter a number only.

Known results for sequences:
>  <SEQUENCE>
CUGGAGCAAUAUUACGACAG

>  <self-splicing fitness (ln)>
-4.83

$$$$
>  <SEQUENCE>
CCCAAGCAAUAUUACGGGGC

>  <self-splicing fitness (ln)>
-4.7

$$$$
>  <SEQUENCE>
GAAAAGCAAUAUUACGACUU

>  <self-splicing fitness (ln)>
-0.183

$$$$
>  <SEQUENCE>
CUGCAGCAAUAUUACGGUUC

>  <self-splicing fitness (ln)>
-3.41

$$$$
>  <SEQUENCE>
CAGCAGCAAUAUUACGUUAA

>  <self-splicing fitness (ln)>
-3.01

$$$$
>  <SEQUENCE>
UGAGAGCAAUAUUACGUGCA

>  <self-splicing fitness (ln)>
-1.53

$$$$
>  <SEQUENCE>
CAAUAGCAAUAUUACGUGCC

>  <self-splicing fitness (ln)>
-2.98

$$$$
>  <SEQUENCE>
CGAAAGCAAUAUUACGCUGC

>  <self-splicing fitness (ln)>
-3.68

$$$$

Quick check: self-splicing fitness (ln) of GUGCAGCAAUAUUACGCGGA ?
-2.35

Quick check: self-splicing fitness (ln) of GAAGAGCAAUAUUACGAUCC ?
-1.84

meta.source: the supplement of paper PMC7877785
